B1: library; numbered along this chain (parent)
chain: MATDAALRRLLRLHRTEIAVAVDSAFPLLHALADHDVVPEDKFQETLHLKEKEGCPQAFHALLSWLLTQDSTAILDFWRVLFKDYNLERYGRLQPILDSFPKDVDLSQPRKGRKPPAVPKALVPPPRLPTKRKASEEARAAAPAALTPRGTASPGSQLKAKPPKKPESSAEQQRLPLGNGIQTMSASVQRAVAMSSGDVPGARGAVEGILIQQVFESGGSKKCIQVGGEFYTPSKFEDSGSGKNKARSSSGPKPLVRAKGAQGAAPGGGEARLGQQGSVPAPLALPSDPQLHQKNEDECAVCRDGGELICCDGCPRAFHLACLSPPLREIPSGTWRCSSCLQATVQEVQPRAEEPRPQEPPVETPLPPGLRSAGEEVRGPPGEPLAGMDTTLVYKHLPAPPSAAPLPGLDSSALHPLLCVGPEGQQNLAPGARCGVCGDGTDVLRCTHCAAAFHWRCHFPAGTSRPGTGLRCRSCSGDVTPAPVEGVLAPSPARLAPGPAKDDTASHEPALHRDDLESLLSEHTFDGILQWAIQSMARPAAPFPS

- Variants of: B1
- PROTOCOL: AIRE transcriptional activation functional score (insulin promoter-GFP; nonsense median 0, synonymous median 1) (normalised score); higher = higher AIRE activity (more reporter activation)
- TEST PARAMETERS: with insulin promoter-GFP reporter in HEK293
RECORDED ENDPOINT: AIRE transcriptional activation functional score
Enter a number only.

Q: Report AIRE transcriptional activation functional score for V22C please.
Result: -0.0794

Q: Repeat for the following variant: A500D
Result: 1.19

Q: Try S135D next.
Result: 1.56

Q: Also, E363I please.
Result: 1.02

Q: Item: G201C
Result: 1.03

Q: Same lookup for S521Q , please.
Result: 0.377

Q: Now consider W65H .
Result: 0.542

Q: Subsequent entry: S474Y
Result: 0.736

Q: Thanks! And L529S ?
Result: -0.21

Q: And the next one, V377C ?
Result: 1.32

Q: Same read-out for R433A ?
Result: 0.402

Q: // same read-out, input: V22H
Result: 0.157
